Recorded values, source the supplement of paper PMC6897291.

System: U-2932
Test: growth inhibition by drug plus 177Lu-lilotomab satetraxetan (1 - RLU/untreated control) (fraction); higher = stronger inhibition
Settings: 1000 nM; time (day): 5; 177Lu-lilotomab satetraxetan 1 ug/ml
Structures can show the parent of a compound that is named as a salt.
Entry flag: label 1 if growth inhibition by drug plus 177Lu-lilotomab satetraxetan reaches 0.3; label 0 if it does not.

These recorded examples may help you get a feel for the data.
| compound | group.label |
| --- | --- |
| C[C@@H](Oc1cc(-n2cnc3ccc(CN4CCN(C)CC4)cc32)sc1C(N)=O)c1ccccc1C(F)(F)F | label 1 |
| Cc1[nH]c(/C=C2\C(=O)Nc3ccc(S(=O)(=O)Cc4c(Cl)cccc4Cl)cc32)c(C)c1C(=O)N1CCC[C@@H]1CN1CCCC1 | label 0 |
| O=C(O)CC[C@H]1CC[C@@](c2cc(F)ccc2F)(S(=O)(=O)c2ccc(Cl)cc2)CC1 | label 0 |
| CCCCCCCCc1ccc(CCC(N)(CO)CO)cc1 [Fingolimod (FTY720)] | label 0 |

Enquiry: Does growth inhibition by drug plus 177Lu-lilotomab satetraxetan meet or surpass 0.3 for CCCCCCCc1ccc(CCc2cccc(O)c2C(=O)O)cc1 ?
Return: label 0

Enquiry: Does growth inhibition by drug plus 177Lu-lilotomab satetraxetan meet or surpass 0.3 for CCn1c(-c2nonc2N)nc2c(C#CC(C)(C)O)ncc(OC[C@H]3CCCNC3)c21 ?
Return: label 1

Enquiry: Does growth inhibition by drug plus 177Lu-lilotomab satetraxetan meet or surpass 0.3 for CC(NC(=O)c1ccccc1/N=C/c1c(O)ccc2ccccc12)c1ccccc1 (stereo unspecified) [Sirtinol] ?
Return: label 0

Enquiry: Does growth inhibition by drug plus 177Lu-lilotomab satetraxetan meet or surpass 0.3 for Cn1cc(-c2ccc3nnc(C(F)(F)c4ccc5ncccc5c4)n3n2)cn1 ?
Return: label 0

Enquiry: Does growth inhibition by drug plus 177Lu-lilotomab satetraxetan meet or surpass 0.3 for COC(=O)Nc1ccc(-c2nc(N3CCOCC3)c3cnn(C4CCN(C(=O)OC)CC4)c3n2)cc1 ?
Return: label 1

Enquiry: Does growth inhibition by drug plus 177Lu-lilotomab satetraxetan meet or surpass 0.3 for CNC(=O)c1cc(Oc2ccc(NC(=O)Nc3ccc(Cl)c(C(F)(F)F)c3)cc2)ccn1 [Sorafenib (Nexavar)] ?
Return: label 0

Enquiry: Does growth inhibition by drug plus 177Lu-lilotomab satetraxetan meet or surpass 0.3 for COc1cccc2c1C(=O)c1c(O)c3c(c(O)c1C2=O)C[C@@](O)(C(=O)CO)C[C@@H]3O[C@H]1C[C@H](N)[C@@H](O)[C@H](C)O1 [Epirubicin Hydrochloride] ?
Return: label 1

---

Test system: U-2932
Experiment: growth inhibition by drug alone (1 - RLU/untreated control) (fraction); higher = stronger inhibition
Settings: 1000 nM; time (day): 6; 177Lu-lilotomab satetraxetan 0 ug/ml
Where a name gives a salt, the structure may show the parent alone.
Recorded growth inhibition by drug alone for the following molecules

Enquiry: Return growth inhibition by drug alone (reported value) for this molecule: O=C1c2c(O)ccc(O)c2C(=O)c2c(NCCNCCO)ccc(NCCNCCO)c21 [Mitoxantrone Hydrochloride]
Return: 0.986

Enquiry: Return growth inhibition by drug alone (reported value) for this molecule: O=C(Nc1ccccc1-c1cn2c(CN3CCNCC3)csc2n1)c1cnc2ccccc2n1
Return: -0.1

Enquiry: Return growth inhibition by drug alone (reported value) for this molecule: CC(C)c1ccc(Cn2ccc3c4c(N)nc(NC5CC5)nc4ccc32)cc1
Return: 0.985

Enquiry: Return growth inhibition by drug alone (reported value) for this molecule: CN(C)Cc1ccc(-c2nc3cccc4c3n2CCNC4=O)cc1
Return: -0.203

Enquiry: Return growth inhibition by drug alone (reported value) for this molecule: COc1ccc(CNC(=O)Nc2ncc([N+](=O)[O-])s2)cc1
Return: 0.0679

---

Test system: U-2932
Assay: growth inhibition by drug alone (1 - RLU/untreated control) (fraction); higher = stronger inhibition
Conditions: 10 nM; time (day): 3; 177Lu-lilotomab satetraxetan 0 ug/ml
Binning rule for recorded growth inhibition by drug alone: category 1: < 0.009; category 2: ≥ 0.009 and < 0.1; category 3: ≥ 0.1

These recorded examples may help you get a feel for the data.
| molecule | group.label |
| --- | --- |
| CCOc1cc2ncc(C#N)c(Nc3ccc(OCc4ccccn4)c(Cl)c3)c2cc1NC(=O)/C=C/CN(C)C | category 1 |
| Nc1ccc(C(=O)Nc2cccc(-c3nc(N4CCOCC4)c4oc5ncccc5c4n3)c2)cn1 | category 3 |
| C[S+]([O-])c1ccc(-c2nc(-c3ccc(F)cc3)c(-c3ccncc3)[nH]2)cc1 (centres undefined) | category 3 |
| Cc1nc(N)sc1-c1ccnc(Nc2ccc(N3CCOCC3)cc2)n1 | category 1 |
| Cn1nnc2c(C(N)=O)ncn2c1=O [Temozolomide] | category 2 |
| Nc1cccc2c1C(=O)N(C1CCC(=O)NC1=O)C2=O (centres undefined) [Pomalidomide] | category 1 |
| CC(C)OC(=O)C1=CN(C(=O)c2ccc(F)c(F)c2)CC(C)(C)c2c1[nH]c1ccccc21 | category 2 |
| O=C(O)CC[C@H]1CC[C@@](c2cc(F)ccc2F)(S(=O)(=O)c2ccc(Cl)cc2)CC1 | category 3 |

Next, consider the following molecule.
Enquiry: Kindly state the category for this molecule: CCN(CC)C(=S)SSC(=S)N(CC)CC
Return: category 2

---

Tested on: RIVA
Assay: growth inhibition by drug alone (1 - RLU/untreated control) (fraction); higher = stronger inhibition
Conditions: 10 nM; time (day): 3; 177Lu-lilotomab satetraxetan 0 ug/ml
assay.metric: growth inhibition by drug alone
A bare number is all that is needed in reply.

| compound | growth inhibition by drug alone |
| --- | --- |
| CNC(=O)c1cc(Oc2ccc(NC(=O)Nc3ccc(Cl)c(C(F)(F)F)c3)c(F)c2)ccn1 | 0.0302 |
| C=CCc1cccc(/C=N/NC(=O)CN2CCN(Cc3ccccc3)CC2)c1O | -0.0454 |
| CCCC(=O)[O-].[Na+] [Sodium butyrate] | -0.23 |

Please find the next compound below.
Enquiry: Lab note: record growth inhibition by drug alone of COc1cc2nccc(Oc3ccc(NC(=O)C4(C(=O)Nc5ccc(F)cc5)CC4)cc3)c2cc1OC [XL-184 free base (Cabozantinib)] tested on RIVA.
Return: 0.0104

---

System: U-2932
Assay: growth inhibition by drug alone (1 - RLU/untreated control) (fraction); higher = stronger inhibition
Conditions: 10 nM; time (day): 3; 177Lu-lilotomab satetraxetan 0 ug/ml
assay.metric: growth inhibition by drug alone
A bare number is all that is needed in reply.

Enquiry: Return growth inhibition by drug alone (reported value) for this molecule: O=C(NCCCNc1nc(Nc2cccc(NC(=O)N3CCCC3)c2)ncc1I)c1cccs1
Return: 0.201

Enquiry: Return growth inhibition by drug alone (reported value) for this molecule: NC(=O)c1ccc(I)c([N+](=O)[O-])c1 [Iniparib (BSI-201)]
Return: -0.0132

Enquiry: Return growth inhibition by drug alone (reported value) for this molecule: Cc1cccc(-c2nn3c(c2-c2ccnc4ccc(C(N)=O)cc24)CCC3)n1
Return: -0.0698

---

Recorded growth inhibition by drug plus 177Lu-lilotomab satetraxetan for the following molecules
Test system: RIVA
Experiment: growth inhibition by drug plus 177Lu-lilotomab satetraxetan (1 - RLU/untreated control) (fraction); higher = stronger inhibition
Conditions: 100 nM; time (day): 6; 177Lu-lilotomab satetraxetan 0.5 ug/ml

| molecule | val |
| --- | --- |
| CCOc1ccc(Cc2cc([C@@H]3O[C@H](CO)[C@@H](O)[C@H](O)[C@H]3O)ccc2Cl)cc1 | 0.572 |
| C[C@@H](N)[C@H]1CC[C@H](C(=O)Nc2ccncc2)CC1 | 0.469 |
| O=C1C(Cl)=C(NCCN2CCOCC2)C(=O)c2ncccc21 | 0.631 |
| CNC(=O)c1cc(Oc2ccc(NC(=O)Nc3cc(C(C)(C)C)nn3-c3ccc4ncccc4c3)c(F)c2)ccn1 [DCC-2036 (Rebastinib)] | 0.633 |
| Cc1nc(N)sc1-c1ccnc(Nc2ccc(N3CCOCC3)cc2)n1 | 0.487 |
| C#Cc1cccc(Nc2ncnc3cc(OC)c(OCCCCCCC(=O)NO)cc23)c1 | 0.923 |
| CS(=O)(=O)c1ccc(C(=O)Nc2ccc(Cl)c(-c3ccccn3)c2)c(Cl)c1 | 0.608 |
| NC(=O)c1ccc(-c2nc(-c3ccccn3)c(-c3ccc4c(c3)OCO4)[nH]2)cc1 | 0.52 |

Enquiry: Return growth inhibition by drug plus 177Lu-lilotomab satetraxetan (reported value) for this molecule: O=C(Nc1ccccc1-c1cn2c(CN3CCNCC3)csc2n1)c1cnc2ccccc2n1
Return: 0.514

---

Tested on: U-2932
Test: growth inhibition by drug alone (1 - RLU/untreated control) (fraction); higher = stronger inhibition
Settings: 10 nM; time (day): 4; 177Lu-lilotomab satetraxetan 0 ug/ml
Where a name gives a salt, the structure may show the parent alone.
assay.metric: growth inhibition by drug alone
A bare number is all that is needed in reply.

Below, 7 molecules whose answers are already recorded.
| molecule | val |
| --- | --- |
| CO[C@@H](C(=O)N1Cc2[nH]nc(NC(=O)c3ccc(N4CCN(C)CC4)cc3)c2C1)c1ccccc1 | -0.0423 |
| CN1CCN(c2nc(C3=C(c4c[nH]c5ccccc45)C(=O)NC3=O)c3ccccc3n2)CC1 | 0.158 |
| CCN1CCN(Cc2ccc(-c3cc4c(N[C@H](C)c5ccccc5)ncnc4[nH]3)cc2)CC1 | 0.0172 |
| CCN(CC)CCCCNc1ncc2cc(-c3cc(OC)cc(OC)c3)c(NC(=O)NC(C)(C)C)nc2n1 | -0.118 |
| CC(C)CC(=O)Nc1n[nH]c2c1CN(C(=O)C1CCN(C)CC1)C2(C)C | 0.0893 |
| CC1=C(/C=C/C(C)=C/C=C/C(C)=C/C(=O)Nc2ccc(O)cc2)C(C)(C)CCC1 [Fenretinide] | 0.0202 |
| CN(C)CCOc1ccc(/C(=C(/CCCl)c2ccccc2)c2ccccc2)cc1 [Toremifene Citrate (Fareston, Acapodene)] | 0.112 |

Enquiry: Return growth inhibition by drug alone (reported value) for this molecule: O=C(O)c1ccc(-c2c[nH]c3ncc(-c4ccccc4)cc23)cc1C1CCCC1
Return: 0.0154
